Provenance of the data: paper PMC5453637

target: human wild-type CFTR (Homo sapiens); experiment: Plate reader assay of CFTR activity; conditions: read-out: EC50 CFTR activation; as stated in abstract
Sequence (P13569 whole entry): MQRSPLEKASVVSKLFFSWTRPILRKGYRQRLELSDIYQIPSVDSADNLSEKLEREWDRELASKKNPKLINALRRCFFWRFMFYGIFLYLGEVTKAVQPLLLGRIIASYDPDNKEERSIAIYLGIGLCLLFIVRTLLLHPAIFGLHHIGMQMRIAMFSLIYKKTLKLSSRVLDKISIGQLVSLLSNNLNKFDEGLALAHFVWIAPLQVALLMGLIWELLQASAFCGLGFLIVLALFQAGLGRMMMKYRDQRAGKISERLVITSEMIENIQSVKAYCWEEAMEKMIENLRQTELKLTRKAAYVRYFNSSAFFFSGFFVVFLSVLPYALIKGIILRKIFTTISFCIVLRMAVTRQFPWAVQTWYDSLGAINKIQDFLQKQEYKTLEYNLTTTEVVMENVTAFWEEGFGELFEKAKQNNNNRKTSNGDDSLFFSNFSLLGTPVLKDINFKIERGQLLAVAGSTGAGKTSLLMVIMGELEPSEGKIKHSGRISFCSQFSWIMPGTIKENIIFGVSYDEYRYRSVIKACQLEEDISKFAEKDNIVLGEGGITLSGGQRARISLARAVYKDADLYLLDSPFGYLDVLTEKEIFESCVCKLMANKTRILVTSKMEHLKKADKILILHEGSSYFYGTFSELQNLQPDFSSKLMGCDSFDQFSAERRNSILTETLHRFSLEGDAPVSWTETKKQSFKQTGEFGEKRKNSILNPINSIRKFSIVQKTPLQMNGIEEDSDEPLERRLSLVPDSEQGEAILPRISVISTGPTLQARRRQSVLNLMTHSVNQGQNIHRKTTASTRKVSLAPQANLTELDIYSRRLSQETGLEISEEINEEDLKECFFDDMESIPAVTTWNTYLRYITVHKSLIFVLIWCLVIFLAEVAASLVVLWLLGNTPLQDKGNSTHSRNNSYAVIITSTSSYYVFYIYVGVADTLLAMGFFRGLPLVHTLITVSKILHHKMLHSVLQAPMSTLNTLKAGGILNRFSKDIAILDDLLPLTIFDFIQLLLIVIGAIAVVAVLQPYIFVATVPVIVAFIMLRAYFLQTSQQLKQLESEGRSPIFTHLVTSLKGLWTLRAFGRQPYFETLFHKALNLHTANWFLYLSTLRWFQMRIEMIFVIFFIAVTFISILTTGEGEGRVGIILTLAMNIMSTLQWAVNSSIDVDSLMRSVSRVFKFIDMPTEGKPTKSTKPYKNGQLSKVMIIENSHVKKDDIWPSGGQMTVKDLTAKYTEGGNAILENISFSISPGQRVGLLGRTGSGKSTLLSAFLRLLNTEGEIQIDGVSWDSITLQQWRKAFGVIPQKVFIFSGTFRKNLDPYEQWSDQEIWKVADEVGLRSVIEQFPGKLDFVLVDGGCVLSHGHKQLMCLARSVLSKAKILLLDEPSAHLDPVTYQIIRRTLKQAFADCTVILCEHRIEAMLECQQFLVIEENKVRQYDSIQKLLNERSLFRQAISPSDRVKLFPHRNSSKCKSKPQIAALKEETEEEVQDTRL

# smiles-code, assayed-system, EC50
records = [
    ("Nc1ccc([N+](=O)[O-])cc1-c1nc2ccccc2n(Cc2ccccc2)c1=O", "human wild-type CFTR (Homo sapiens)", "~200 nM"),
]
